Values from ChEMBL document CHEMBL1130045

molecular target: Kappa-type opioid receptor (Mus musculus, UniProt P33534); assay: […]
Sequence (P33534 whole entry): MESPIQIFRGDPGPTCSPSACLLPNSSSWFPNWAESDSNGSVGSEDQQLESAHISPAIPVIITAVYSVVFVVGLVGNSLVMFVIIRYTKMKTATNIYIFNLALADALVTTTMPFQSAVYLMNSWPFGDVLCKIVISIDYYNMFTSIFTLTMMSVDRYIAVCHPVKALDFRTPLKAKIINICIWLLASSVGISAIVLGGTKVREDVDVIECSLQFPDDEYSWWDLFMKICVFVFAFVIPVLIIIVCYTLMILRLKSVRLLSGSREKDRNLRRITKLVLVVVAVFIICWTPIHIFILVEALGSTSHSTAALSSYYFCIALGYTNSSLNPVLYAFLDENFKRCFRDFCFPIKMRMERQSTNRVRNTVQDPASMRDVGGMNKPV
measured_parameter: Ki

Answered cases to consult:
molecule	Ki
CN1CCC23c4c5ccc(O)c4OC2C(=O)C2(Cc4cc6ccccc6cc4C2)C[C@@]3(O)C1C5 (some centres undefined)	> 3 µM
COc1cccc2c1CC1(C2)C[C@@]2(O)C3Cc4ccc(O)c5c4C2(CCN3CC2CC2)C(O5)C1=O (some centres undefined)	> 3 µM
COc1cccc2c1CC1(C2)C[C@@]2(O)C3Cc4ccc(O)c5c4C2(CCN3C)C(O5)C1=O (some centres undefined)	> 3 µM

Memo: O=C1C2Oc3c(O)ccc4c3C23CCN(CC2CC2)C(C4)[C@]3(O)CC12Cc1cc3ccccc3cc1C2 (some centres undefined) , reported Ki: 1.03 µM

* * *

biological target: Delta-type opioid receptor (Mus musculus); assay: Compound was tested for its ability to antagonize the antinociceptive effect of DPDPE (delta-1 opioid receptor agonist) in mice; format: functional
Sequence (P32300 whole entry): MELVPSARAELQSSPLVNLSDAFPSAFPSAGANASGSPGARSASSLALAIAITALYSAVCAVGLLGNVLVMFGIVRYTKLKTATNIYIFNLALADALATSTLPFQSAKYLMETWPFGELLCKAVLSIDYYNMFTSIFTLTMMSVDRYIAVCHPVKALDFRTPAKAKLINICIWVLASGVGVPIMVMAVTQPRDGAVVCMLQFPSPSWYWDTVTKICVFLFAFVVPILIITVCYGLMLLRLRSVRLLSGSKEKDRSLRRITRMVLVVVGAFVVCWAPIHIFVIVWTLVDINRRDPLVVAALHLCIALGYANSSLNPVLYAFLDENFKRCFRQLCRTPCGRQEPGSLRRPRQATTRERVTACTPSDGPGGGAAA
# maps each entry to its ED50 ratio
Reply with the value as a number alone.

molecule	value_measured
O=C1C2Oc3c(O)ccc4c3C23CCN(CC2CC2)C(C4)[C@]3(O)CC12Cc1cc3ccccc3cc1C2 (some centres undefined)	4.4
CN1CCC23c4c5ccc(O)c4OC2C(=O)C2(Cc4cc6ccccc6cc4C2)C[C@@]3(O)C1C5 (some centres undefined)	1.5
COc1cccc2c1CC1(C2)C[C@@]2(O)C3Cc4ccc(O)c5c4C2(CCN3CC2CC2)C(O5)C1=O (some centres undefined)	5.6

Memo: O=C1/C(=C/c2ccccc2)C[C@@]2(O)[C@H]3Cc4ccc(O)c5c4[C@@]2(CCN3CC2CC2)[C@H]1O5 , reported ED50 ratio: 7.2

* * *

molecular target: Mu-type opioid receptor (Mus musculus); test: Compound was tested for its ability to antagonize the antinociceptive effect of morphine (mu opioid receptor agonist) in mice; type: functional
measured_parameter: ED50 ratio
Reply with the value as a number alone.

compound	value_measured
COc1cccc2c1CC1(C2)C[C@@]2(O)C3Cc4ccc(O)c5c4C2(CCN3CC2CC2)C(O5)C1=O (some centres undefined)	2.5
O=C1C2Oc3c(O)ccc4c3C23CCN(CC2CC2)C(C4)[C@]3(O)CC12Cc1cc3ccccc3cc1C2 (some centres undefined)	0.8
O=C1/C(=C/c2ccccc2)C[C@@]2(O)[C@H]3Cc4ccc(O)c5c4[C@@]2(CCN3CC2CC2)[C@H]1O5	0.8

Here's the next entry for you.
Memo: CN1CCC23c4c5ccc(O)c4OC2C(=O)C2(Cc4cc6ccccc6cc4C2)C[C@@]3(O)C1C5 (some centres undefined) , reported ED50 ratio: 2

* * *

species on record: Mus musculus; assay: Compound was tested for agonistic activity on the electrically stimulated mouse vas deferens (MVD) at 1 uM; assay type: functional
measured_parameter: Max response (%)
# number only, unit % dropped from output

molecule	Max response / %
COc1ccc2c(c1)CC1(C2)C[C@@]2(O)C3Cc4ccc(O)c5c4C2(CCN3CC2CC2)C(O5)C1=O (stereo partly drawn)	0.6
O=C1[C@@H]2Oc3c(O)ccc4c3[C@@]23CCN(CC2CC2)[C@H](C4)[C@]3(O)CC12Cc1ccccc1C2	-8

Memo: O=C1C2Oc3c(O)ccc4c3C23CCN(CC2CC2)C(C4)[C@]3(O)CC12Cc1cc3ccccc3cc1C2 (stereo partly drawn) , reported Max response: 4.9

* * *

organism: Mus musculus; test: Compound was tested for agonistic activity on the electrically stimulated mouse vas deferens (MVD); assay type: functional, organism-based
measured_parameter: IC50

molecule	IC50
COc1cccc2c1CC1(C2)C[C@@]2(O)C3Cc4ccc(O)c5c4C2(CCN3C)C(O5)C1=O (some centres not stated)	27 nM

Here's the next entry for you.
Memo: CN1CC[C@]23c4c5ccc(O)c4O[C@H]2C(=O)C2(Cc4ccccc4C2)C[C@@]3(O)[C@H]1C5 [SPIROINDANYLOXYMORPHONE] , reported IC50: 23 nM

* * *

molecular target: Delta-type opioid receptor (Mus musculus); experiment: The compound tested for […] against [3H]- NT1 (Opioid receptor delta 1) opioid receptor
measured_parameter: Ki (µM)
# number only, unit µM dropped from output

Memo: CN1CCC23c4c5ccc(O)c4OC2C(=O)C2(Cc4cc6ccccc6cc4C2)C[C@@]3(O)C1C5 (stereo partly specified) , reported Ki: 0.0316

* * *

species: Cavia porcellus; assay: Compound was tested for agonistic activity on the electrically stimulated guinea pig ileum (GPI); assay type: functional, organism-based
measured_parameter: IC50 (nM)
# number only, unit nM dropped from output

Memo: COc1cccc2c1CC1(C2)C[C@@]2(O)C3Cc4ccc(O)c5c4C2(CCN3C)C(O5)C1=O (stereo partly specified) , reported IC50: 148

* * *

target: Opioid receptors; mu & kappa (Homo sapiens) (UniProt P41145+P35372); experiment: Antagonist selectivity ratio measured as delta IC50 to that of mu kappa IC50 values.; type: functional
Sequence (P35372 whole entry, looked up): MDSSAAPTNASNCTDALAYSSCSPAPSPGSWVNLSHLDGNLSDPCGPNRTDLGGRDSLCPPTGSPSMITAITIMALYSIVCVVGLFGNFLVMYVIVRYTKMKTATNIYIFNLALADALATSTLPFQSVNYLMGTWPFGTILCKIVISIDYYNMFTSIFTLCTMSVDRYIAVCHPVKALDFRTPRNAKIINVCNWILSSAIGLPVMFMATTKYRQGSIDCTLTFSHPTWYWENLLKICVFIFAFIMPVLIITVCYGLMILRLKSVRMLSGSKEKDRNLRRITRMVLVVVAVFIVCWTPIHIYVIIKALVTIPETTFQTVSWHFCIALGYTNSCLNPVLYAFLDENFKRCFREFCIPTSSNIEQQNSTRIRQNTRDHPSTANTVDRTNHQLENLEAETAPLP
Sequence (P41145 whole entry, looked up): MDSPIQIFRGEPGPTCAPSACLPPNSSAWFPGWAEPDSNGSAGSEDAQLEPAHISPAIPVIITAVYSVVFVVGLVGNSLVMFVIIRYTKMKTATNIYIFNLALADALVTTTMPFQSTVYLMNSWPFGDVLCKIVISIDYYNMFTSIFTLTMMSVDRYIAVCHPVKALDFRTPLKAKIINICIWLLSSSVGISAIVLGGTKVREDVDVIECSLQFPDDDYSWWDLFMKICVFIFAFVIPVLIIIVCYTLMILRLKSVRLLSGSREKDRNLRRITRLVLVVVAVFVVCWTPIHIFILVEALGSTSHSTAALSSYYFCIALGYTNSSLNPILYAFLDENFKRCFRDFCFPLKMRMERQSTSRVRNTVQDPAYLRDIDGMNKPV
measured_parameter: IC50 ratio
Reply with the value as a number alone.

Answered cases to consult:
compound	IC50 ratio
COc1ccc2c(c1)CC1(C2)C[C@@]2(O)C3Cc4ccc(O)c5c4C2(CCN3CC2CC2)C(O5)C1=O (stereo partly specified)	4.2
COc1cccc2c1CC1(C2)C[C@@]2(O)C3Cc4ccc(O)c5c4C2(CCN3CC2CC2)C(O5)C1=O (stereo partly specified)	35
CN1CCC23c4c5ccc(O)c4OC2C(=O)C2(Cc4cc6ccccc6cc4C2)C[C@@]3(O)C1C5 (stereo partly specified)	1
O=C1C2Oc3c(O)ccc4c3C23CCN(CC2CC2)C(C4)[C@]3(O)CC12Cc1cccc3cccc(c13)C2 (stereo partly specified)	12.6
O=C1C2Oc3c(O)ccc4c3C23CCN(CC2CC2)C(C4)[C@]3(O)CC12Cc1cc3ccccc3cc1C2 (stereo partly specified)	48

Here's the next entry for you.
Memo: O=C1C2Oc3c(O)ccc4c3C23CCN(CC2CC2)C(C4)[C@]3(O)CC12Cc1ccc3ccccc3c1C2 (stereo partly specified) , reported IC50 ratio: 14.7

* * *

molecular target: Mu-type opioid receptor (Homo sapiens, UniProt P35372); assay: […]
# maps each entry to its Ki
# number only, unit nM dropped from output

CN1CC[C@]23c4c5ccc(O)c4O[C@H]2C(=O)C2(Cc4ccccc4C2)C[C@@]3(O)[C@H]1C5 14.3

Here's the next entry for you.
Memo: O=C1[C@@H]2Oc3c(O)ccc4c3[C@@]23CCN(CC2CC2)[C@H](C4)[C@]3(O)CC12Cc1ccccc1C2 , reported Ki: 1.53

* * *

biological target: Kappa-type opioid receptor (Mus musculus) (UniProt P33534); assay: Compound was tested for its ability to antagonize the antinociceptive effect of U-69,594 (kappa opioid receptor agonist) in mice; format: functional
# maps each entry to its ED50 ratio

Answered cases to consult:
compound	target_system	value_measured
O=C1C2Oc3c(O)ccc4c3C23CCN(CC2CC2)C(C4)[C@]3(O)CC12Cc1cc3ccccc3cc1C2 (some centres undefined)	Kappa-type opioid receptor (Mus musculus) (UniProt P33534)	0.8
CN1CCC23c4c5ccc(O)c4OC2C(=O)C2(Cc4cc6ccccc6cc4C2)C[C@@]3(O)C1C5 (some centres undefined)	Kappa-type opioid receptor (Mus musculus) (UniProt P33534)	3
COc1cccc2c1CC1(C2)C[C@@]2(O)C3Cc4ccc(O)c5c4C2(CCN3CC2CC2)C(O5)C1=O (some centres undefined)	Kappa-type opioid receptor (Mus musculus) (UniProt P33534)	3.4

Here's the next entry for you.
Memo: O=C1/C(=C/c2ccccc2)C[C@@]2(O)[C@H]3Cc4ccc(O)c5c4[C@@]2(CCN3CC2CC2)[C@H]1O5 , reported ED50 ratio: 1.2

* * *

organism: Mus musculus; test: Compound was tested for agonistic activity on the electrically stimulated mouse vas deferens (MVD) at 1 uM; format: functional
measured_parameter: Max response (%)
# number only, unit % dropped from output

Answered cases to consult:
molecule	Max response [%]
O=C1C2Oc3c(O)ccc4c3C23CCN(CC2CC2)C(C4)[C@]3(O)CC12Cc1ccc3ccccc3c1C2 (some centres undefined)	14
CN1CCC23c4c5ccc(O)c4OC2C(=O)C2(Cc4cc6ccccc6cc4C2)C[C@@]3(O)C1C5 (some centres undefined)	57
COc1cccc2c1CC1(C2)C[C@@]2(O)C3Cc4ccc(O)c5c4C2(CCN3CC2CC2)C(O5)C1=O (some centres undefined)	-18

Memo: O=C1C2Oc3c(O)ccc4c3C23CCN(CC2CC2)C(C4)[C@]3(O)CC12Cc1cccc3cccc(c13)C2 (some centres undefined) , reported Max response: 17.6
